Hello, the source for this data is ChEMBL document CHEMBL4513216, in case you need it.

Experiment: Toxicity liver stage against HepG2, at 10uM
Assay type: cell-based
Design: test concentration 10 uM, cell line HepG2-A16-CD81EGFP
Details: human, HepG2-A16-CD81EGFP cells; read-out: INHIBITION
Measurement type: cytotoxicity at 10 µM

- COc1cc2c(c(OC)c1OC)CCN(CCn1cncn1)CC2: 11.5%
- Cc1cnn(CC2CN(Cc3nnc(C4CC4)o3)CCO2)c1 (centres undefined): -11.8%
- CN1CCN(C(=O)CCn2c(C(F)(F)F)cc3cccnc32)CC1: -31.9%
- Cc1cc(Cc2ccccc2)cc(C2CCCNC2)n1 (centres undefined): -5.89%
- CN(Cc1cnn(C)c1)C1CCN(c2cccc(-c3cscn3)c2)CC1: -0.724%
- Cn1cc(N2CC3(CCN(Cc4nccn4C)C3)CC2=O)cn1 (centres undefined): -72.8%
- CN(C)c1ncccc1NC(=O)C1CN(Cc2ccccc2)CCO1 (centres undefined): 0.499%
- CCOC(=O)CSc1nnc([C@@H](N)C(C)CC)o1 (some centres undefined): 2%
- O=C(c1ccc(C(F)(F)F)cc1)C1CCCN(C(=O)Cn2cnnn2)C1 (centres undefined): -5.34%
- CN(Cc1cc(F)ccc1F)CC(C)(CO)CO: -5.38%
- CCCc1nc(C(C)(C)NC(=O)C2CC(=O)N(CC3CC3)C2)no1 (centres undefined): -3.61%
- COc1ccnc(N2CCCN(C(=O)CCc3cnn(C)c3)CC2)n1: 17.7%
- CC(C)(C)S(=O)(=O)CCNC(=O)NCCCc1cccc(F)c1: 17%
- CCc1nn(-c2cc(Oc3cc(C)ccc3C)nc(C)n2)c(N)c1C#N: 58.4%
- Cc1nc(CN2CCOC3(CCCC3)C2)oc1C: 4.56%
- Cn1cccc1C(=O)N1CCc2ncc(Cn3cccn3)n2CC1: -5.2%
- COc1ccc(CS(=O)(=O)CC(=O)NCc2ccccc2F)cc1F: 3.33%
- Cc1ncsc1-c1ccn(CC(=O)Nc2cnn(C)n2)n1: 93.8%
- CC(=O)c1cccc(OCC(=O)N(CC(C)C)C2CCN(C)CC2)c1: -17.6%
- Cc1ccc(CN2CCc3c(CN4CCCC4)n[nH]c3C2)s1: 4.41%
- Cc1cnn(CCC(=O)N2CCN(C(=O)C3CC3)[C@@H]3CS(=O)(=O)C[C@@H]32)c1: 0.168%
- O=C(NCCC1COc2ccccc2O1)c1ccc(N2CC(O)C2)nc1 (centres undefined): 72.1%
- Cc1ccc(C2(CN3CCN(Cc4cn(C)nc4C)CC3)CC2)cc1: 1.74%
- CS(=O)(=O)Cc1ccc(NC(=O)Cc2cccnc2)cc1F: 1.34%

====

Here the recorded cytotoxicity at 10 µM is given for each entry.
Assay: Toxicity liver stage against HepG2, at 10uM
Format: cell-based
Set-up: test concentration 10 uM, cell line HepG2-A16-CD81EGFP
Conditions: human, HepG2-A16-CD81EGFP cells; read-out: INHIBITION
Measurement type: cytotoxicity at 10 µM (%)

• Nc1nc2cn(C3CCCC3)c(=O)c-2c[nH]1 = -14.5
• O=C(c1cnc2ccccc2c1)N1CCCC(O)(CN2CCCC2)C1 (centres undefined) = 9.27
• CCOC1COC2(CCN(Cc3ccco3)CC2)C1 (centres undefined) = -2.98
• Cc1cc(F)ccc1CN1CCCC(O)(CN2CCCC2)C1 (centres undefined) = -5.19
• O=C(NC1CC(F)(F)C1)[C@]12COC[C@H]1CN(Cc1cccnc1)C2 = -109
• CC(C)CCc1cc(C(=O)O)nc2[nH]c(=O)[nH]c(=O)c12 = 4.31
• Cc1cc(N(C)C)nc(C2CCNC2)n1 (centres undefined) = 0.812
• O=C(N1CCOCC1)N1CCOC[C@H](Oc2ccc(C(F)(F)F)cc2)C1 = 1.27
• CN(C)CC(=O)N1Cc2nnn(C)c2C(COCC2CC2)C1 (centres undefined) = -99.4
• Cc1nc2c(c(NC(C)c3nnn[nH]3)n1)Cc1ccccc1OC2 (centres undefined) = 1.07
• c1sc(C2CCCCC2)nc1CN1CCn2c(nnc2C2CC2)C1 = -6.61
• Cn1ccc(C(=O)N(CC(F)F)c2cccc(Cl)c2)cc1=O = 0.541
• Cc1ccsc1C(O)CNC(=O)Cc1ccc(F)cc1 (centres undefined) = 3.15
• CCc1[nH]c2c(CNC(=O)C3CCC(=O)NC3)cc(C)cc2c1C (centres undefined) = -3.79
• COc1cc(N2CCC3(CCCN(Cc4ccccn4)C3)C2)ncn1 (centres undefined) = -88.6
• CCN(CC1CCOC1)C(=O)c1ccccc1N1CCOCC1 (centres undefined) = -13.6
• CCn1c(C(=O)N2CCN(CC(C)O)CC2)cc2ccccc21 (centres undefined) = -8.96
• Cc1nc[nH]c1CN1CCOC(c2ccc(Cl)c(Cl)c2)C1 (centres undefined) = 0.833
• CC(C)Nc1nc2c(cc1C(=O)NCC1CC1)CCNCC2 = -5.42
• Cc1cc(=O)[nH]c(-n2nc(C3CC3)cc2N)n1 = -4.84
• Cc1cc(C)nc(NC2CCC(=O)N(C)C2)n1 (centres undefined) = -4.83
• Cc1ncccc1C(=O)NCc1ccccc1CN(C)Cc1ccco1 = 8.35
• CCc1nn(C)c(Cl)c1CN1CCCC2(CC1)CN(C)C(=O)O2 (centres undefined) = 5.63
• O=C(Cc1ccccn1)N1CCN2C[C@H](Oc3cccc(F)c3)C[C@H]2C1 = 3.94
